Reported growth values for a set of compounds
system: DU-145 prostate; assay: NCI-60 one-dose screen, 48 h (100 = growth as untreated, 0 = no growth, -100 = all killed); conditions: 10 µM unless noted
About 83,000 compounds went through this panel and 20% of them were active in at least one assay; those are over-represented in the sample as a whole. Calls of active or inactive are those of the source. Rule for the calls: active = growth percent below 10; inactive = the rest.

Reference set (3 entries):
Oc1c(CN2CCN(c3ccccc3F)CC2)cc(Br)c2cccnc12    -32% (active)
Nc1ccc(C2c3ccccc3Oc3ccccc32)cc1    106% (inactive)
O=C(Nc1ccc(-c2nc3ccc(NC(=O)c4ccc(Cl)cc4)cc3[nH]2)cc1)c1ccc(Cl)cc1    44.1% (inactive)

Look up growth for this compound: O=C1/C=C/[C@@H](O)[C@@H]2C[C@@H](O)C[C@H]2/C=C/CCCCO1
19.3% (inactive)

Look up growth for this compound: Cc1ccc2cc3c(N)c4c(C)ccc(C)c4nc3nc2c1
80.5% (inactive)

Look up growth for this compound: COc1ccc2oc(=O)cc(Cn3cc(Cn4cnc5c4c(=O)n(C)c(=O)n5C)nn3)c2c1
105% (inactive)

Look up growth for this compound: Nc1ccc(-c2ccc(-c3ccccc3N)c3[nH]c4ccccc4c23)cc1
10.2% (inactive)

Look up growth for this compound: CC1=C(CC(=O)c2cccc([N+](=O)[O-])c2)C(=O)c2ccccc2C1=O
-57% (active)

Look up growth for this compound: O=c1oc2ccc(I)cc2c(=O)n1-c1ccc(I)cc1F
15.8% (inactive)

Look up growth for this compound: COc1cc(C#N)cc2[nH]c(=O)oc12
99% (inactive)

Look up growth for this compound: Cn1nc(C(C)(C)C)cc1NC(=O)Cc1ccc(/C=C2\C(=O)Nc3ccccc32)cc1
56.6% (inactive)

Look up growth for this compound: Clc1ccc(COc2ccc(Nc3ncnc4onc(-c5ccccc5)c34)cc2)cc1
72.7% (inactive)

Look up growth for this compound: Cn1c(C(=O)c2cccc3ccccc23)nc2ccccc21
18.3% (inactive)

Look up growth for this compound: O=C(Nc1ccc(N2CCNCC2)cn1)c1[nH]ncc1Nc1ncnc2sccc12
41.9% (inactive)

Origin of the recorded values: PubChem BioAssay (NCI)
